// values below are IC50; system is PARP (TREVIGEN) (Homo sapiens)
Sequence (P09874 whole entry): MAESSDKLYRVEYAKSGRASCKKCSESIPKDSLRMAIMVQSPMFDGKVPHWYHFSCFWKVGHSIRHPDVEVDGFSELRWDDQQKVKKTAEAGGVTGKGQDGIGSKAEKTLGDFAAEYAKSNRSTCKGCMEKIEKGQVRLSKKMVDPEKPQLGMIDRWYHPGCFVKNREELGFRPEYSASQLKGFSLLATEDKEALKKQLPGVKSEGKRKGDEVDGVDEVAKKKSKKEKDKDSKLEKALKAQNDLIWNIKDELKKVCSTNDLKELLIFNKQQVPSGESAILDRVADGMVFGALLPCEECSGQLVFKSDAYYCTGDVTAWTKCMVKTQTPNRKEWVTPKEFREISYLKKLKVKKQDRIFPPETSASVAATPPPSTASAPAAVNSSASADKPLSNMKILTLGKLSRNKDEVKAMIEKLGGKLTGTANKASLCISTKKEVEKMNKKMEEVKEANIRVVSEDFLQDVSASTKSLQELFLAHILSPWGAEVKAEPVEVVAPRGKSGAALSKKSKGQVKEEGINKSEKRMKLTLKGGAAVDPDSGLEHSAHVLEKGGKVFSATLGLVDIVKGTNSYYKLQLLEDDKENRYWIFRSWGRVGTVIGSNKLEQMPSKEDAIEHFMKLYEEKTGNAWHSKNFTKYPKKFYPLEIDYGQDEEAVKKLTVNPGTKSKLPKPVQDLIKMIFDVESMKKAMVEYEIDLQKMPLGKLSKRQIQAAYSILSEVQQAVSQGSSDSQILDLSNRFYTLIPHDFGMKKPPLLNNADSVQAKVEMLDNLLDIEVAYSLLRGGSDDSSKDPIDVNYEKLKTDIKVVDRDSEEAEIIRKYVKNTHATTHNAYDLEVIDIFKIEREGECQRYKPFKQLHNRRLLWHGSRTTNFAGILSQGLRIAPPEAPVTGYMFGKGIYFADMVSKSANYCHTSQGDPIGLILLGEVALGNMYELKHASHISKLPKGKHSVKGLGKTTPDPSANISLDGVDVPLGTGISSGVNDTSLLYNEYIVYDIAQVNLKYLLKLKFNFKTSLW
metric_name: IC50 (nM)

I. Nc1cc(N)cc(C2=NNC(=O)C3CSCCN23)c1 (centres unmarked)
II. Nc1cccc(-c2n[nH]c(=O)c3c2NCCC3)c1
Response body: label of entry with the larger IC50; valid values I , II . To answer, give the label that identifies your chosen option.
I
